Listed here are compounds together with their documented nuclei count.
test: inhibitors of E-selectin induction by TNFa, primary screen, imaging, HUVEC, immunofluorescence, MLSMR starter and 10KST1 sets (AID 487); details: HUVEC TNFalpha-induced E-selectin immunofluorescence imaging, at 2 µM; measured here: cell number, toxicity;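 note: 100% = median nuclei count of all wells on the same plate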
Form entry: value (%) — number only.

Recorded results for 10 compounds are shown here.
{"compound": "CC(CCc1ccco1)NC(=O)Cn1ncc2c1-c1ccccc1OC2 (stereo not drawn)", "nuclei count (%)": 120}
{"compound": "c1ccc2c(Cn3ccnc3)c[nH]c2c1", "nuclei count (%)": 96.2}
{"compound": "Cc1cc(SCCC(=O)O)nc2ccccc12", "nuclei count (%)": 201}
{"compound": "O=c1oc2c3c4c(cc2s1)CCCN4CCC3", "nuclei count (%)": 119}
{"compound": "c1ccc(-n2ncc3c(N4CCCC4)ncnc32)cc1", "nuclei count (%)": 188}
{"compound": "CCCc1cc(NCCN2CCOCC2)n2c(nc3ccccc32)c1C#N", "nuclei count (%)": 105}
{"compound": "COc1ccc(/C(O)=C2\\C(=O)C(=O)N(Cc3ccco3)C2c2cc(OC)ccc2OC)cc1 (stereo not drawn)", "nuclei count (%)": 161}
{"compound": "CCCOc1ccc(C2/C(=C(/O)c3ccccc3)C(=O)C(=O)N2CCCN(C)C)cc1OC (stereo not drawn)", "nuclei count (%)": 157}
{"compound": "CCOC(=O)N1CCN(C(=O)CSc2nnc(-c3cc(OC)cc(OC)c3)o2)CC1", "nuclei count (%)": 99.6}
{"compound": "CC(NC(=O)CSc1nc2c(cc1C#N)CN(C)CC2)c1ccccc1 (stereo not drawn)", "nuclei count (%)": 170}

Item CCCC(CCC(=O)Nc1ccc(C(=O)OCC)cc1)C(=O)O (stereo not drawn) : provide nuclei count 152

Using known records, supply nuclei count for O=C(NCc1cccnc1)NC(C(F)(F)F)C(F)(F)F 148

# return recorded nuclei count for input CC(C)(C)OC(=O)NCCc1nnc(SCC(=O)c2ccc(Cl)cc2)o1 85.4

Tell us which nuclei count value is on record for COC(=O)/C(C#N)=C1/SC=C(C)N1c1ccccc1 115

Please list nuclei count recorded for the compound Cc1cc(C)n(CC2CC(=O)N(c3cc(Cl)cc(Cl)c3)C2=O)n1 (stereo not drawn) 103

Give the value of nuclei count reported for the following: CC1CN(c2nc(-c3ccccc3)nc3ccccc23)CC(C)O1 (stereo not drawn) 114

Consider the compound CC(C)c1nc(N2CCOCC2)c(C#N)c2c1COC(C)(C)C2 and give its recorded nuclei count. 110

Consider the compound CCOC(=O)c1ccc(N2C(=O)CC(N3CCN(C/C=C/c4ccccc4)CC3)C2=O)cc1 (stereo not drawn) . State its measured nuclei count. 125

Give nuclei count for CCOC(=O)c1c2c(c(=S)n(-c3ccccc3)c1N)CCC2 135

---

assay: inhibitors of Chlamydomonas gravitaxis, primary screen, whole organism, Chlamydomonas reinhardtii, WT vs cilia-less mutant, absorbance, 96-well (AID 463189); conditions: OD600 absorbance, 2 days, at 10 µM, stronger effect = higher value;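 note: 0% = wild type cc124 cells in DMSO and 100% = ciliumless bld1 mutant cells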
Measured inhibition, listed per entry.
# number only, unit % dropped from output

Previously resolved entries follow.
{"compound": "COC(=O)c1ccc(C2/C(=C(\\O)c3cccc(OC)c3)C(=O)C(=O)N2CCCN(C)C)cc1 (configuration not stated)", "property.measured": "inhibition", "reading.unit": "%", "value.reported": 20.5}
{"compound": "COc1cc(/C=N/n2nnnc2N)ccc1O", "property.measured": "inhibition", "reading.unit": "%", "value.reported": 14}
{"compound": "CCSC1=C(C#N)C(c2cccs2)C(C(=O)OC)=C(C)N1 (configuration not stated)", "property.measured": "inhibition", "reading.unit": "%", "value.reported": -1.08}

Name the recorded inhibition of the compound listed here: COC(=O)/C=c1/s/c(=C(\C#N)C(=O)NCc2ccco2)n(-c2ccccc2)c1=O 45.7

Identify the reported inhibition for the following entry. CC(=O)Oc1ccc2c(C)cc(=O)[nH]c2c1 22.8

Query inhibition for Clc1ccc(-n2ncc3c(N4CCCC4)ncnc32)cc1 134

Read the entry O=C(NCCCNCc1ccccc1)/C(=N\O)c1ccccc1 and write its reported inhibition. 7.18

Specify inhibition for CCOc1ccc(N=C2C(=O)N(CN3CCOCC3)c3ccccc32)cc1 and stop. 9.3

Find the measured inhibition of Nc1ccc2oc(-c3cc(Br)ccc3Cl)nc2c1 and report it. 15.1

Give the reported value of inhibition for this record: O=C(O)CCc1nn2cc(-c3ccccc3)nc2[nH]c1=O -5.8

Determine from records and report inhibition for CCOC(=O)c1c(C)n(C)c2ccc(O)c(CN3CCCCC3)c12 22.8

Quick one: give measured inhibition for COC(=O)COc1ccc(Oc2nc(SC)nc(N(C)C)n2)nn1 -8.33

---

molecular target: Alpha-2C adrenergic receptor (Homo sapiens); test: modulators of alpha2C/GIRK thallium flux, primary screen, cell-based, HEK293 alpha2C/GIRK1/2 (AID 624); details: thallium flux BTC fluorescence, at 10 µM, actives lie on both sides;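 note: slope of fluorescence ratio to pre-addition baseline per second over 15 to 24 s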
Quick list: slope per entry.
Give the figure by itself; no unit, no explanation.

{"compound": "Cc1c(C(=O)Nc2ccncc2)oc2c1C(=O)CC(C)(C)C2", "value.reported": 0.00527}
{"compound": "CCOC(=O)CNC(=O)CSc1nc(N)cc(N)n1", "value.reported": 0.00537}
{"compound": "CC(C)OC(=O)c1cc(=O)[nH]c2ccccc12", "value.reported": 0.00572}
{"compound": "Cc1cccc(N2CCN(C(=O)c3cc4ccccc4oc3=O)CC2)c1C", "value.reported": 0.00624}
{"compound": "CCN(CC)CCn1c(=N)n(CCO)c2ccccc21", "value.reported": 0.00357}
{"compound": "O=S(=O)(NC1CCCC1)c1ccccc1Cl", "value.reported": 0.00495}

// Input: O=C(CN1CCN(c2cccc(Cl)c2)CC1)N1CCCC1 . Output its slope only. 0.00658

Output slope of CCOn1c(=O)c(=O)n(OCc2ccccc2)c2ccccc21 0.00578

Check the records and state slope for COc1ccc(S(=O)(=O)C(C#N)c2nc3ccccc3nc2N2CCCC(C)C2)cc1 (configuration not stated) 0.00445

---

target: Voltage-gated potassium channel subunit beta-2 (Rattus norvegicus); experiment: KvBeta positive modulators, primary screen, biochemical, NADPH fluorescence (AID 623); details: Recombinant KvBeta, NADPH fluorescence decrease slope, 10 min; at 10 µM; stronger effect = lower value;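 note: fluorescence intensity change per second fitted from 20 to 320 s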
property.measured: NADPH fluorescence slope
Reply: number alone, nothing else.

These recorded examples may help you get a feel for the data.
{"molecule": "O=c1[nH]cnc2c1C1(CCCC1)Cc1ccccc1-2", "NADPH fluorescence slope": "-1.9e-05"}
{"molecule": "NC(=O)C1CCN(C2OC(=O)c3ccccc32)CC1 (configuration not stated)", "NADPH fluorescence slope": "-8.4e-05"}
{"molecule": "COc1cccc(C(c2nnnn2CCc2ccccc2)N2CCN(c3ccccc3)CC2)c1OC (configuration not stated)", "NADPH fluorescence slope": "-3e-06"}
{"molecule": "CC(C)Cc1[nH]c(=O)c(C#N)c2c1COC(C)(C)C2", "NADPH fluorescence slope": "-5.3e-05"}

# return recorded NADPH fluorescence slope for entry CCOC(=O)CSc1nc(-c2ccc3c(c2)OCO3)ccc1C#N -8.6e-07

Consider the molecule Cn1c(=O)[nH]c(=O)c2c1nc(Br)n2CCSc1nnnn1-c1ccccc1 and give its recorded NADPH fluorescence slope. -4e-05

Please report the measured NADPH fluorescence slope for CC(=O)c1cccc(N=C2NC(=O)C(CO)(CO)S2)c1 -4.4e-05

Read off the recorded NADPH fluorescence slope for CCN1CCN(C(CNC(=O)c2ccc3c(c2)OCO3)c2cccnc2)CC1 (configuration not stated) 1.4e-05

For the molecule Cn1c(=O)c2c(nc(CN3CCCCC3)n2CCCc2ccccc2)n(C)c1=O , give its measured NADPH fluorescence slope value. -9.8e-06

Fill in NADPH fluorescence slope for record COc1ccc(NC(=O)CCS(=O)(=O)c2ccc(OC)cc2)cc1 -8.1e-06

Quick one: give measured NADPH fluorescence slope for CCSc1nnc(NC(=O)NCC(F)(F)F)s1 -3.9e-05

Return the recorded NADPH fluorescence slope value; entry: Nc1c2c(nc3ccccc13)N(c1ccccc1)CC2 -1.3e-05

Respond only with NADPH fluorescence slope recorded for CC1CCCC(C)N1C(=O)COC(=O)c1ccc[nH]c1=O (configuration not stated) -7.3e-06

---

experiment: DUSP6 inhibitors restoring Erk phosphorylation by chemical complementation, primary imaging in DUSP6-transfected HeLa (AID 609); details: HeLa MKP-3 transfected, phospho-Erk imaging KS statistic; measured here: cell density z-score; at 10 µM; cells stimulated with TPA for 15 min
# maps each entry to its z-score
// print number alone

Let me know recorded z-score for C=CCN=C(NC#N)SCCc1ccccc1 , thanks. -0.943

Supply z-score value. Item: Cn1c(Cl)nc2c1c(=O)n(Cc1cccc(Br)c1)c(=O)n2C -1.75

State its z-score for this molecule: CCOC(=O)CNC(=O)CNC(=O)c1ccc(OCC(C)C)cc1 0.797
